- Test system: 186277-243-T-J2-PDC complex spheroid viability
- ASSAY COMMENT: Anticancer human tumor 186277-243-T-J2-PDC patient-derived colon adenocarcinoma cell line growth inhibition [GQUAD]
- CONDITION PARAMETERS: curve of first compound; second compound 1 µM
ENDPOINT NAME: IC50

MOLECULE	TARGET OF ASSAY	RESULT
O=C(c1cc(Cc2n[nH]c(=O)c3ccccc23)ccc1F)N1CCN(C(=O)C2CC2)CC1 + Cc1[nH]c2ccc(F)cc2c1-c1nc2c3cccnc3c3ncccc3c2[nH]1	186277-243-T-J2-PDC complex spheroid viability	> 10 µM
Cn1ncnc1[C@H]1c2n[nH]c(=O)c3cc(F)cc(c23)N[C@@H]1c1ccc(F)cc1 + Cc1cnc(CNC(=O)c2c(=O)c3ccc(N4CCCN(C)CC4)nc3n3c2sc2ccccc23)cn1	186277-243-T-J2-PDC complex spheroid viability	> 0.316 µM
CC(C)n1c(=O)n(C)c2cnc3cc(F)c(-c4ccc(OCCCN5CCCCC5)nc4)cc3c21 + CN(C)c1ccc(Nc2c3ccc(NC(=O)CCN4CCCC4)cc3nc3cc(NC(=O)CCN4CCCC4)ccc23)cc1	186277-243-T-J2-PDC complex spheroid viability	> 10 µM

---

viability, T/C values, listed per item
- Tested on: 186277-243-T-J2-PDC complex spheroid viability
- ASSAY COMMENT: Anticancer human tumor 186277-243-T-J2-PDC cell line growth inhibition [GQUAD];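 note: spheroids exposed to drugs for 7 days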;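 for viability, T/C: 100% = DMSO vehicle control viability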
- CONDITION PARAMETERS: second compound 0.0316 µM; first compound 0.316 µM; stronger effect = lower value
ENDPOINT NAME: viability, T/C (%)

COMPOUND	UNIT SPEC	RECORDED NUMBER
O=C(c1cc(Cc2n[nH]c(=O)c3ccccc23)ccc1F)N1CCN(C(=O)C2CC2)CC1 + Cc1[nH]c2ccc(F)cc2c1-c1nc2c3cccnc3c3ncccc3c2[nH]1	%	103
O=c1[nH]cc(F)c(=O)[nH]1 + Cc1[nH]c2ccc(F)cc2c1-c1nc2c3cccnc3c3ncccc3c2[nH]1	%	110
COc1ncnc(C2CC2)c1-c1ncc2cnn(Cc3ccc(-c4nc(C(F)(F)F)cn4C(C)C)cc3)c2n1 + CN(C)c1ccc(Nc2c3ccc(NC(=O)CCN4CCCC4)cc3nc3cc(NC(=O)CCN4CCCC4)ccc23)cc1	%	101
C#Cc1c(F)ccc2cc(O)cc(-c3ncc4c(N5CC6CCC(C5)N6)nc(OCC56CCCN5CC(F)C6)nc4c3F)c12 (stereo not given) + Cc1cnc(CNC(=O)c2c(=O)c3ccc(N4CCCN(C)CC4)nc3n3c2sc2ccccc23)cn1	%	19.9
CC1COCCN1c1cc(-c2ccnn2C)c2ccnc(-c3ccn[nH]3)c2n1 (stereo not given) + Cc1[nH]c2ccc(F)cc2c1-c1nc2c3cccnc3c3ncccc3c2[nH]1	%	7.54
Nc1ccn(C2OC(CO)C(O)C2(F)F)c(=O)n1 (stereo not given) + Cc1[nH]c2ccc(F)cc2c1-c1nc2c3cccnc3c3ncccc3c2[nH]1	%	11.9
COc1cc(C2c3cc4c(cc3C(OC3OC5COC(C)OC5C(O)C3O)C3COC(=O)C23)OCO4)cc(OC)c1O (stereo not given) + Cc1[nH]c2ccc(F)cc2c1-c1nc2c3cccnc3c3ncccc3c2[nH]1	%	101
Cn1ncnc1[C@H]1c2n[nH]c(=O)c3cc(F)cc(c23)N[C@@H]1c1ccc(F)cc1 + Cc1[nH]c2ccc(F)cc2c1-c1nc2c3cccnc3c3ncccc3c2[nH]1	%	89.3
Cc1[nH]c2ccccc2c1CCNCc1ccc(/C=C/C(=O)NO)cc1 + Cc1cnc(CNC(=O)c2c(=O)c3ccc(N4CCCN(C)CC4)nc3n3c2sc2ccccc23)cn1	%	1.14
CC[C@@]1(O)C(=O)OCc2c1cc1n(c2=O)Cc2cc3c(CN(C)C)c(O)ccc3nc2-1 + Cc1[nH]c2ccc(F)cc2c1-c1nc2c3cccnc3c3ncccc3c2[nH]1	%	51.6
COc1cc(C2c3cc4c(cc3C(OC3OC5COC(C)OC5C(O)C3O)C3COC(=O)C23)OCO4)cc(OC)c1O (stereo not given) + Cc1cnc(CNC(=O)c2c(=O)c3ccc(N4CCCN(C)CC4)nc3n3c2sc2ccccc23)cn1	%	78.2
CC(C)n1c(=O)n(C)c2cnc3cc(F)c(-c4ccc(OCCCN5CCCCC5)nc4)cc3c21 + Cc1[nH]c2ccc(F)cc2c1-c1nc2c3cccnc3c3ncccc3c2[nH]1	%	106
CC1COCCN1c1cc(C2(O)CC3CCC(C2)O3)c2cnn(-c3ccn[nH]3)c2n1 (stereo not given) + Cc1cnc(CNC(=O)c2c(=O)c3ccc(N4CCCN(C)CC4)nc3n3c2sc2ccccc23)cn1	%	5.91
COc1ccc([C@@H](O)c2cc(-c3ncnc4cc(N5CCOCC5)ccc34)c(F)cc2Cl)nn1 + CN(C)c1ccc(Nc2c3ccc(NC(=O)CCN4CCCC4)cc3nc3cc(NC(=O)CCN4CCCC4)ccc23)cc1	%	117
CC1COCCN1c1cc(C2(S(C)(=N)=O)CC2)nc(-c2ccnc3[nH]ccc23)n1 (stereo not given) + CN(C)c1ccc(Nc2c3ccc(NC(=O)CCN4CCCC4)cc3nc3cc(NC(=O)CCN4CCCC4)ccc23)cc1	%	117

---

- Tested on: 186277-243-T-J2-PDC complex spheroid viability
- ASSAY COMMENT: Anticancer human tumor 186277-243-T-J2-PDC cell line growth inhibition [GQUAD];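 note: spheroids exposed to drugs for 7 days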;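 for viability, T/C: 100% = DMSO vehicle control viability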
- CONDITION PARAMETERS: second compound 10 µM; first compound 1 µM; stronger effect = lower value
Binary call on viability, T/C with cut-off 90%: strictly below means satisfied, and equality or higher means not satisfied.

MOLECULE	CLASS
COc1ncnc(C2CC2)c1-c1ncc2cnn(Cc3ccc(-c4nc(C(F)(F)F)cn4C(C)C)cc3)c2n1 + Cc1[nH]c2ccc(F)cc2c1-c1nc2c3cccnc3c3ncccc3c2[nH]1	not satisfied
Nc1ccn(C2OC(CO)C(O)C2(F)F)c(=O)n1 (stereo not given) + Cc1cnc(CNC(=O)c2c(=O)c3ccc(N4CCCN(C)CC4)nc3n3c2sc2ccccc23)cn1	satisfied
C=CCn1c(=O)c2cnc(Nc3ccc(N4CCN(C)CC4)cc3)nc2n1-c1cccc(C(C)(C)O)n1 + Cc1cnc(CNC(=O)c2c(=O)c3ccc(N4CCCN(C)CC4)nc3n3c2sc2ccccc23)cn1	satisfied
CC1COCCN1c1cc(-c2ccnn2C)c2ccnc(-c3ccn[nH]3)c2n1 (stereo not given) + Cc1cnc(CNC(=O)c2c(=O)c3ccc(N4CCCN(C)CC4)nc3n3c2sc2ccccc23)cn1	satisfied
C=CC(=O)N1CCN(c2nc(=O)n(-c3c(C)ccnc3C(C)C)c3nc(-c4c(O)cccc4F)c(F)cc23)C(C)C1 (stereo not given) + CN(C)c1ccc(Nc2c3ccc(NC(=O)CCN4CCCC4)cc3nc3cc(NC(=O)CCN4CCCC4)ccc23)cc1	not satisfied
C=CCn1c(=O)c2cnc(Nc3ccc(N4CCN(C)CC4)cc3)nc2n1-c1cccc(C(C)(C)O)n1 + Cc1[nH]c2ccc(F)cc2c1-c1nc2c3cccnc3c3ncccc3c2[nH]1	satisfied
COc1cccc2c1C(=O)c1c(O)c3c(c(O)c1C2=O)CC(O)(C(=O)CO)CC3OC1CC(N)C(O)C(C)O1 (stereo not given) + CN(C)c1ccc(Nc2c3ccc(NC(=O)CCN4CCCC4)cc3nc3cc(NC(=O)CCN4CCCC4)ccc23)cc1	satisfied
CC1COCCN1c1cc(-c2ccnn2C)c2ccnc(-c3ccn[nH]3)c2n1 (stereo not given) + CN(C)c1ccc(Nc2c3ccc(NC(=O)CCN4CCCC4)cc3nc3cc(NC(=O)CCN4CCCC4)ccc23)cc1	satisfied
CCCS(=O)(=O)Nc1ccc(F)c(C(=O)c2c[nH]c3ncc(-c4ccc(Cl)cc4)cc23)c1F + Cc1[nH]c2ccc(F)cc2c1-c1nc2c3cccnc3c3ncccc3c2[nH]1	not satisfied
CC1COCCN1c1cc(C2(O)CC3CCC(C2)O3)c2cnn(-c3ccn[nH]3)c2n1 (stereo not given) + Cc1[nH]c2ccc(F)cc2c1-c1nc2c3cccnc3c3ncccc3c2[nH]1	satisfied
CC1COCCN1c1cc(C2(O)CC3CCC(C2)O3)c2cnn(-c3ccn[nH]3)c2n1 (stereo not given) + Cc1cnc(CNC(=O)c2c(=O)c3ccc(N4CCCN(C)CC4)nc3n3c2sc2ccccc23)cn1	satisfied
C#Cc1c(F)ccc2cc(O)cc(-c3ncc4c(N5CC6CCC(C5)N6)nc(OCC56CCCN5CC(F)C6)nc4c3F)c12 (stereo not given) + Cc1[nH]c2ccc(F)cc2c1-c1nc2c3cccnc3c3ncccc3c2[nH]1	satisfied
Cc1cccc(N(C)C(=O)C2C(O)CCN2c2nc(C)cc(C(F)(F)F)c2C#N)c1 (stereo not given) + Cc1cnc(CNC(=O)c2c(=O)c3ccc(N4CCCN(C)CC4)nc3n3c2sc2ccccc23)cn1	satisfied

---

- Test system: 186277-243-T-J2-PDC complex spheroid viability
- ASSAY COMMENT: Anticancer human tumor 186277-243-T-J2-PDC cell line growth inhibition [GQUAD];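 note: spheroids exposed to drugs for 7 days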;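 for viability, T/C: 100% = DMSO vehicle control viability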
- CONDITION PARAMETERS: second compound 0.316 µM; first compound 10 µM; stronger effect = lower value
ENDPOINT NAME: viability, T/C (%)

MOLECULE	ENDPOINT NAME	UNIT SPEC	RECORDED NUMBER
COc1ncnc(C2CC2)c1-c1ncc2cnn(Cc3ccc(-c4nc(C(F)(F)F)cn4C(C)C)cc3)c2n1 + Cc1[nH]c2ccc(F)cc2c1-c1nc2c3cccnc3c3ncccc3c2[nH]1	viability, T/C	%	96
Nc1ccn(C2OC(CO)C(O)C2(F)F)c(=O)n1 (centres undefined) + Cc1cnc(CNC(=O)c2c(=O)c3ccc(N4CCCN(C)CC4)nc3n3c2sc2ccccc23)cn1	viability, T/C	%	16
O=C(c1cc(Cc2n[nH]c(=O)c3ccccc23)ccc1F)N1CCN(C(=O)C2CC2)CC1 + CN(C)c1ccc(Nc2c3ccc(NC(=O)CCN4CCCC4)cc3nc3cc(NC(=O)CCN4CCCC4)ccc23)cc1	viability, T/C	%	63.4
CC1COCCN1c1cc(-c2ccnn2C)c2ccnc(-c3ccn[nH]3)c2n1 (centres undefined) + Cc1cnc(CNC(=O)c2c(=O)c3ccc(N4CCCN(C)CC4)nc3n3c2sc2ccccc23)cn1	viability, T/C	%	5.76
